# TEST_TARGET: human CD3 (human) (UniProt P07766)
# Sequence (P07766 23-207): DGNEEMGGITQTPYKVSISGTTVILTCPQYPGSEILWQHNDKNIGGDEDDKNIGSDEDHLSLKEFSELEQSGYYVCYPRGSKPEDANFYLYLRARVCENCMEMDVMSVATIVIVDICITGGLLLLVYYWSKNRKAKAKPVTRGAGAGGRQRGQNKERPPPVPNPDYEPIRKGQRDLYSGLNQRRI
# EXPERIMENT_SUMMARY: cell-based or functional assay
MEASURED_QUANTITY: Apo-One Apoptosis Assay, 25 ng/ml
// return a plain number; no unit text

BINDER	Apo-One Apoptosis Assay, 25 ng/ml
anti-CD3 HuFR antibody 7 (heavy chain BD20611, light chain BD21136) (antibody, part only; not given: Heavy stretch before framework 4, V domains shown, part only) VH, part: QVQLVESGAEVKKPGASVKVSCKASGYTFTRYTMHWVRQAPGKGLEWMGYINPSRGYTNYNQKFKDRLTISKDTSKNQVVLTMTNMDPVDTATYYCARYYDDHYCLDYVTVSSASTKGPS VL: DIQMTQSPSTLSASVGDRVTITCSASSSVSYMNWYQQKPGKAPKLLIYDTSKLASGIPDRFSGSGSGTDFTLTISRLEPEDFAVYYCQQWSSNPFTFGQGTKVEIKFGQGTKVEIKR	3480
anti-CD3 HuFR antibody 4 (heavy chain BD20611, light chain BD21133) (antibody, part only; not given: Heavy stretch before framework 4, V domains shown, part only) VH, part: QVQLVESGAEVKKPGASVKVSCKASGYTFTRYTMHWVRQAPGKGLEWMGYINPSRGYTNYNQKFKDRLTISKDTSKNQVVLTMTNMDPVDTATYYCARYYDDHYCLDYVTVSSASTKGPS VL: DIVMTQSPLSLPVTPGEPASISCSASSSVSYMNWYQQKPGQPPKLLIYDTSKLASGVPSRFSGSGSGTEFTLTISSLQPDDFATYYCQQWSSNPFTFGQGTKVEIKFGQGTKVEIKR	2350

Moving on to the next binder.
// field: Apo-One Apoptosis Assay, 25 ng/ml; key: anti-CD3 HuFR antibody 6 (heavy chain BD20611, light chain BD21135) (antibody, part only; not given: Heavy stretch before framework 4, V domains shown, part only) VH, part: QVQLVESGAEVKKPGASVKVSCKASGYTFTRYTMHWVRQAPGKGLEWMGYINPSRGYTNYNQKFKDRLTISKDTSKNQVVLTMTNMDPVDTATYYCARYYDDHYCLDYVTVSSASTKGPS VL: EIVMTQSPATLSVSPGERATLSCSASSSVSYMNWYQQKPGQAPRLLIYDTSKLASGVPDRFSGSGSGTDFTLTISSLQAEDVAVYYCQQWSSNPFTFGQGTKVEIKFGQGTKVEIKR ; value = 2220
